Catalogue of composite z-score values
# assay_protocol: probe aNOTCH2 binding on compound microarray – biochemical, small-molecule microarray, 635/667 nm fluorescence, primary screen (AID 1121);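 further: score merges feature fluorescence read at 667 nm with its signal to noise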
# setup_conditions: higher = more signal
// no unit, no text: just the number

Sample answers from the record:
molecule	composite z-score
C=CCN1Cc2ccccc2[C@@H]2OC(c3ccc(OCCCO)cc3)=N[C@]2(CC=C)C1=O	0.147
NC(=O)[C@@]1(Cc2ccccc2)COC(c2ccc(OCCCO)cc2)=N1	0.513
CC(C)NC(=O)[C@@]1(C)c2ccccc2C(=O)N(Cc2ccc(OC(F)(F)F)cc2)[C@H]1c1ccc(CO)cc1	-0.0995
NC(=O)NCC#Cc1ccc2c(c1)[C@]1(C(=O)N2)[C@H](C(=O)N2CCN(c3ncccn3)CC2)[C@H]2C(=O)O[C@H](c3ccccc3)[C@H](c3ccccc3)N2[C@@H]1c1ccc(O)cc1	-0.0149

Q: Can you look up the measured composite z-score of `CCCCC(=C=CC[C@H](O)c1ccc(OCCO)cc1)CCO` for me?
Result: -0.0795

Q: Can you look up the measured composite z-score of `CC1=C2[C@@H](CCc3ccccc3)OB(O)C[C@@H]2[C@@H]2C(=O)N(Cc3ccccc3)C(=O)[C@@H]2C1` for me?
Result: -0.0735

Q: Can you look up the measured composite z-score of COC(=O)C1=CC(CCCO)=CC(c2cccs2)N(Cc2cccc(OC(F)(F)F)c2)C=C1C(=O)OC (stereo not given) for me?
Result: 0.224

Q: Can you look up the measured composite z-score of `COC(=O)c1c(CC[C@@H](CO)NC(=O)N[C@@H](C)Cn2cc(-c3ccccn3)nn2)oc(C(C)=O)c1C(=O)OC` for me?
Result: -0.0995

Q: Can you look up the measured composite z-score of `O=C(NCc1ccc(F)cc1)[C@H]1C[C@H]2C(=O)NCC(=O)N2[C@H]1c1ccc(O)cc1` for me?
Result: -0.084

Q: Can you look up the measured composite z-score of O=C1C2C=CC(C(O)c3ccco3)N(Nc3ccccc3F)C2C(=O)N1c1ccccc1 (stereo not given) for me?
Result: -0.104
